Molecular target: T1, human factor IX (human, UniProt P00740 47-461, 12 glutamic acid residues of the GLA domain are post-translationally γ-carboxylated)
T1 construct: Zymogen used as analyte in SPR, reconstituted at 1 mg/ml; also called FIX; Human FIX (MW ~55 KDa)
T1 sequence (P00740 47-461 limits assumed): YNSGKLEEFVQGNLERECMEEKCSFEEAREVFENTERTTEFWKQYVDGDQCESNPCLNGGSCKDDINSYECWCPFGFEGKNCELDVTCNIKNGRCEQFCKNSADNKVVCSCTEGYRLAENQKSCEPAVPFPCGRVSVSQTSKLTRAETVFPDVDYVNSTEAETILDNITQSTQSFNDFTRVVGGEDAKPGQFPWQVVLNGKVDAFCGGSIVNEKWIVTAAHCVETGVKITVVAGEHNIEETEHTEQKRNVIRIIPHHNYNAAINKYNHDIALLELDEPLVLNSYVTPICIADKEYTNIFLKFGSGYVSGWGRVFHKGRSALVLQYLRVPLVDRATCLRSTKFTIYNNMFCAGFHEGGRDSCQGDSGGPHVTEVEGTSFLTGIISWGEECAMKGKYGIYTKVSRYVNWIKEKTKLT
Experiment: SPR as in Example 10, human FIX as analyte
Description: Monospecific antibodies (referred as ligand) which had been purified on Protein A were captured onto the anti-human IgG Fc CM4 surface at approximately 2 μg/ml. The ligands were injected for 60 seconds at 10 μl/min in all the active channels of all 8 flow channels. […] Affinity and kinetics of purified anti-FIX and anti-FX antibodies for binding to their respective antigens was determined by SPR as described in Example 10 above.
parameter-measured: koff (s⁻¹)

NINA-1172.0128 (antibody, V domains shown) VH: EVQLVESGGGFVQPGGSLRLSCAVSGFTFNSYWMSWVRQAPGKGLEWVANINQDGSRKFYVASVKGRFTMSRDNAKKSVYVQMNSLRAEDTAVYYCAREGYSSIKYYGMDVWGQGTTVTVSS VL: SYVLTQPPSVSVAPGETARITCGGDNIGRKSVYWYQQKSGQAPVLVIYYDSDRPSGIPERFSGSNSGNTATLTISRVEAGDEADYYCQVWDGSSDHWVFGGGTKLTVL :: 0.0171
NINA-1091.0128 (antibody, V domains shown) VH: EVQLVESGGGFVQPGGSLRLSCAVSGFTFNSYWMSWVRQAPGKGLEWVANINQDGSRKFYVASVKGRFTMSRDNAKKSVYVQMNSLRAEDTAVYYCAREGYSISSYYGMDVWGQGTTVTVSS VL: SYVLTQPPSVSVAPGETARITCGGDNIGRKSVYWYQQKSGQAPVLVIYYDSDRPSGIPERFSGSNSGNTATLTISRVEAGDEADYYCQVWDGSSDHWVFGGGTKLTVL :: 0.0352
NINA-0128 (antibody, V domains shown) VH: EVQLVESGGGFVQPGGSLRLSCAVSGFTFNSYWMSWVRQAPGKGLEWVANINQDGSEKFYVASVKGRFTMSRDNAKKSVYVQMNSLRAEDTAVYYCAREGYSSSSYYGMDVWGQGTTVTVSS VL: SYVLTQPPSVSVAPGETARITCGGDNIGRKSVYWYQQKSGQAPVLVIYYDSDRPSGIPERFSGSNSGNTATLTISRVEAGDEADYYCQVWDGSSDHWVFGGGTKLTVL :: 0.0492
NINA-0436.0128 (antibody, V domains shown) VH: EVQLVESGGGFVQPGGSLRLSCAVSGFTFNSYWMSWVRQAPGKGLEWVANINQDGSEKFYVASVKGRFTMSRDNAKKSVYVQMNSLRAEDTAVYYCAREGYSSISYYGMDVWGQGTTVTVSS VL: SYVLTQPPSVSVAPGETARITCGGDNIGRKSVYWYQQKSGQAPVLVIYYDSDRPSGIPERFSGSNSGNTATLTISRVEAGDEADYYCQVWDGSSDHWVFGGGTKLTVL :: 0.0523
NINA-1280.0128 (antibody, V domains shown) VH: EVQLVESGGGFVQPGGSLRLSCAVSGFRFNSYWMSWVRQAPGKGLEWVANINQDGSRKFYVASVKGRFTMSRDNAKKSVYVQMNSLRAEDTAVYYCAREGYSSIKYYGMDVWGQGTTVTVSS VL: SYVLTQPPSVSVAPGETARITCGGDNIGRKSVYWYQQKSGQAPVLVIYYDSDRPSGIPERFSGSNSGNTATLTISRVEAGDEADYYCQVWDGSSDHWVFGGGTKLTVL :: 0.01

Every entry's value here was drawn from patent US20220064327A1.
